Sourced from ChEMBL document CHEMBL4033712

Test system: SK-OV-3
procedure text: Growth inhibition of human SKOV3 cells incubated for 48 hrs by sulforhodamine B assay
Assay type: functional
cond: SK-OV-3, 48 h
Below, each of the molecules is paired with its reported TGI value.
// units = µM; emit number, no label

molecule	recorded measurement
C=C1CC[C@@H]2[C@](C)(COC(C)=O)[C@H](OC(C)=O)CC[C@@]2(C)[C@H]1CC(Nc1ccc(S(=O)(=O)Nc2nccc(C)n2)cc1)C1=CCOC1=O (stereo not given in full)	25.3
C=C1CC[C@@H]2[C@](C)(COC(C)=O)[C@H](OC(C)=O)CC[C@@]2(C)[C@H]1CC(Nc1ccc(S(=O)(=O)Nc2ncccn2)cc1)C1=CCOC1=O (stereo not given in full)	18.3
C=C1CC[C@@H]2[C@](C)(COC(C)=O)[C@H](OC(C)=O)CC[C@@]2(C)[C@H]1CC(Nc1ccc(S(=O)(=O)Nc2ccc(Cl)nn2)cc1)C1=CCOC1=O (stereo not given in full)	12.3
C=C1CC[C@@H]2[C@](C)(COC(C)=O)[C@H](OC(C)=O)CC[C@@]2(C)[C@H]1CC(Nc1ccc(S(=O)(=O)Nc2cc(C)on2)cc1)C1=CCOC1=O (stereo not given in full)	23.1

Turning now to a further record.
Req: Could you tell me which TGI is on file for C=C1CC[C@@H]2[C@](C)(COC(C)=O)[C@H](OC(C)=O)CC[C@@]2(C)[C@H]1CC(Nc1ccc(S(=O)(=O)Nc2nccs2)cc1)C1=CCOC1=O (stereo not given in full) ?
Resp: 27.8

* * *

System: OVCAR-3
procedure text: Growth inhibition of human OVCAR3 cells incubated for 48 hrs by sulforhodamine B assay
Format: functional
cond: OVCAR-3, 48 h
Let's look at some compounds and their measured GI50.
Kindly provide the numeric value in nM only, without the unit symbol.

// worked examples, GI50 included
compound	unit abbreviation	GI50
C=C1CC[C@@H]2[C@](C)(COC(C)=O)[C@H](OC(C)=O)CC[C@@]2(C)[C@H]1CC(Nc1ccc(S(=O)(=O)Nc2nccs2)cc1)C1=CCOC1=O (stereo not given in full)	nM	1880
C=C1CC[C@@H]2[C@](C)(COC(C)=O)[C@H](OC(C)=O)CC[C@@]2(C)[C@H]1CC(Nc1ccc(S(=O)(=O)Nc2ncccn2)cc1)C1=CCOC1=O (stereo not given in full)	nM	1210
C=C1CC[C@@H]2[C@](C)(COC(C)=O)[C@H](OC(C)=O)CC[C@@]2(C)[C@H]1CC(Nc1ccc(S(=O)(=O)Nc2ccc(Cl)nn2)cc1)C1=CCOC1=O (stereo not given in full)	nM	1220
C=C1CC[C@@H]2[C@](C)(COC(C)=O)[C@H](OC(C)=O)CC[C@@]2(C)[C@H]1CC(Nc1ccc(S(=O)(=O)Nc2cc(C)on2)cc1)C1=CCOC1=O (stereo not given in full)	nM	1660

Req: Need GI50 of C=C1CC[C@@H]2[C@](C)(COC(C)=O)[C@H](OC(C)=O)CC[C@@]2(C)[C@H]1CC(Nc1ccc(S(=O)(=O)Nc2nccc(C)n2)cc1)C1=CCOC1=O (stereo not given in full) , thanks.
Resp: 1760

* * *

System: NCI-H226
procedure text: Growth inhibition of human NCI-H226 cells incubated for 48 hrs by sulforhodamine B assay
Type: functional
cond: NCI-H226, 48 h
We label by threshold. Values of GI50 strictly beneath 2 µM are true (1). Values of 2 µM and up are false (0).

Below are worked cases with known answers.
molecule	qualitative label
C=C1CC[C@@H]2[C@](C)(COC(C)=O)[C@H](OC(C)=O)CC[C@@]2(C)[C@H]1CC(Nc1ccc(S(=O)(=O)Nc2ncccn2)cc1)C1=CCOC1=O (stereo not given in full)	true (1)
C=C1CC[C@@H]2[C@](C)(COC(C)=O)[C@H](OC(C)=O)CC[C@@]2(C)[C@H]1CC(Nc1ccc(S(=O)(=O)Nc2nccs2)cc1)C1=CCOC1=O (stereo not given in full)	false (0)

Req: Please indicate whether the reported GI50 of C=C1CC[C@@H]2[C@](C)(COC(C)=O)[C@H](OC(C)=O)CC[C@@]2(C)[C@H]1CC(Nc1ccc(S(=O)(=O)Nc2ccc(Cl)nn2)cc1)C1=CCOC1=O (stereo not given in full) is strictly below 2 µM.
Resp: true (1)

Req: What would you report for C=C1CC[C@@H]2[C@](C)(COC(C)=O)[C@H](OC(C)=O)CC[C@@]2(C)[C@H]1CC(Nc1ccc(S(=O)(=O)Nc2cc(C)on2)cc1)C1=CCOC1=O (stereo not given in full) ?
Resp: true (1)

Req: Then what about the molecule C=C1CC[C@@H]2[C@](C)(COC(C)=O)[C@H](OC(C)=O)CC[C@@]2(C)[C@H]1CC(Nc1ccc(S(=O)(=O)Nc2nccc(C)n2)cc1)C1=CCOC1=O (stereo not given in full) ?
Resp: false (0)
